run-description: RAM pathway blockade in budding yeast – dse1pr::URA3 reporter, 5-FOA selection, pilot screen (AID 869);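 further: 0% = DMSO wells with no growth and 100% = 10 µM 1-NA-PP1 with full growth; RAM network block rescues cells from 5-FOA so hits raise OD615 growth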
test-parameters: S. cerevisiae dse1pr::URA3 5-FOA growth, OD615, 2 d; at 10 µM; hits give high values; strain carries analog-sensitive mutant Cbk1 kinase
Classification field: criterion met = inhibition at or over 1%; criterion not met = inhibition under 1%.

• Cc1cc(C)c(NC(=O)c2ccc(S(=O)(=O)N3CCOCC3)cc2)c(C)c1 = criterion not met
• Cn1c(=O)c2c(nc(SCCOc3ccc4ccc(=O)oc4c3)n2C)n(C)c1=O = criterion not met
• COc1ccc(N2C(=O)CC(c3ccc(OC(C)C)cc3)C2=O)cc1 (stereo unspecified) = criterion met
• CC(=O)n1cc(-c2ccncc2)c2ccccc21 = criterion not met
• COc1ccccc1N1CCN(c2nc(N)c(C#N)c(CC#N)c2C#N)CC1 = criterion met
• CCSc1nnc(Cc2cc(=O)[nH]c(=O)[nH]2)n1-c1ccc(F)cc1 = criterion not met
• O=C1O/C(=C\C(=O)N2CCOCC2)c2ccccc21 = criterion met
• Cc1cccc(-n2ncc3c(NCCCn4ccnc4)ncnc32)c1 = criterion met
• O=C1CCCc2c1cc(C(=O)NCCCN1CCOCC1)c(=O)n2-c1ccc(Cl)cc1 = criterion met

Field: next compound
Task: Form field: inhibition at least 1%? Entry: CCn1cc(SCC(=O)NCC2CCCO2)c2ccccc21 (stereo unspecified)
Output: criterion met

----------
run-description: growth suppression of yeast trafficking mutant, preliminary HTS, modulators of trafficking downstream of Golgi apparatus project, 1536-format plate, OD 615 nm (AID 637)
test-parameters: yeast transport mutant growth, absorbance 615 nm, 18 h; hits give high values
Entries annotated with measured inhibition
Form entry: value (%) — number only.

Recorded inhibition, per entry:
- COc1cccc(-c2cc(C(F)(F)F)nc(NCc3ccco3)n2)c1: -1.48
- CC(=O)OCCNc1cc(N2CCN(C)CC2)c2noc3c2c1C(=O)c1ccccc1-3: 3.33
- COC(=O)C1(C(F)(F)F)N=C2Sc3ccccc3N2C(N2CCOCC2)=N1 (stereo unspecified): 5.17
- O=C(Cn1cc2c(n1)CCCCC2)N1CCc2ccccc2C1: -3
- Cc1cc(C)n2c(SCCN3C(=O)c4ccccc4C3=O)nnc2n1: 7.17
- CCCOC(=O)c1[nH]c2c(c1C)C(=O)CC(c1cc(OC)c(OC)c(OC)c1)C2 (stereo unspecified): -4
- O=C(Nc1ccncc1)c1cccc(F)c1: -2.33
- CCN(CCNC(=O)C1CCN(S(=O)(=O)c2cccc3cccnc23)CC1)c1ccccc1: 20.5

Task: Tell me the measured inhibition of CCOc1ccccc1N(CC(=O)N1CCCCCC1)S(C)(=O)=O , please.
Output: 1.15

----------
run-description: RAM signaling pathway blockade in yeast – S. cerevisiae, Pdr1DBD-CYC8 efflux-inhibited sensitized strain, primary screen (AID 1298);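 further: 0% = DMSO untreated cells without growth and 100% = 10 µM 1-NA-PP1 full growth; higher means more yeast growth rescued from 5-FOA killing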
test-parameters: S. cerevisiae cbk1-as DSE1-URA3 strain, 5-FOA growth OD615, 2 d; at 50 µM; hits give high values
readout: RAM network inhibition (%)
Form entry: value (%) — number only.

Task: Tell me the measured RAM network inhibition of O=C(Nc1c(C(=O)Nc2ccccc2)cnn1-c1ccccc1)c1ccco1 , please.
Output: 2.51

----------
run-description: RAM pathway blockade in budding yeast – dse1pr::URA3 reporter, 5-FOA selection, pilot screen (AID 869);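 further: 0% = DMSO wells with no growth and 100% = 10 µM 1-NA-PP1 with full growth; RAM network block rescues cells from 5-FOA so hits raise OD615 growth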
test-parameters: S. cerevisiae dse1pr::URA3 5-FOA growth, OD615, 2 d; at 10 µM; hits give high values; strain carries analog-sensitive mutant Cbk1 kinase
Entries annotated with measured inhibition
Form entry: value (%) — number only.

Recorded inhibition, per entry:
• CC(=O)Nc1ccc(S(=O)(=O)Nc2nc3c(s2)CCCC3)cc1 = 1.9
• CCCC(=O)Nc1cc(C)c2c(=O)oc3ccccc3c2n1 = 1.65
• COc1ccccc1N(CC(=O)NCc1ccccn1)S(C)(=O)=O = 0.815
• CCOC(=O)c1sc2nc(NC(=O)c3cccs3)sc2c1C = -0.28
• O=C(CC1Oc2ccccc2NC1=O)NCCCN1CCOCC1 (stereo not drawn) = 1.94

Task: Tell me the measured inhibition of COc1cccc(C(=O)OCn2nnc3ccccc3c2=O)c1OC , please.
Output: 2.57

Task: Tell me the measured inhibition of CCN(Cc1ccccc1)C(=O)CSc1nc(C)cc(C)c1C#N , please.
Output: 2.48

Task: Tell me the measured inhibition of COc1ccc2oc(C(=O)CCC(=O)O)c(N)c2c1 , please.
Output: 1.98

Task: Tell me the measured inhibition of COc1cc(C2N3CC4(C)CN2CC(C)(C3)C4)ccc1O (stereo not drawn) , please.
Output: 1.72
